- Experimental system: Vascular endothelial growth factor receptor 2 (Homo sapiens, UniProt P35968)
- Sequence (P35968 whole entry): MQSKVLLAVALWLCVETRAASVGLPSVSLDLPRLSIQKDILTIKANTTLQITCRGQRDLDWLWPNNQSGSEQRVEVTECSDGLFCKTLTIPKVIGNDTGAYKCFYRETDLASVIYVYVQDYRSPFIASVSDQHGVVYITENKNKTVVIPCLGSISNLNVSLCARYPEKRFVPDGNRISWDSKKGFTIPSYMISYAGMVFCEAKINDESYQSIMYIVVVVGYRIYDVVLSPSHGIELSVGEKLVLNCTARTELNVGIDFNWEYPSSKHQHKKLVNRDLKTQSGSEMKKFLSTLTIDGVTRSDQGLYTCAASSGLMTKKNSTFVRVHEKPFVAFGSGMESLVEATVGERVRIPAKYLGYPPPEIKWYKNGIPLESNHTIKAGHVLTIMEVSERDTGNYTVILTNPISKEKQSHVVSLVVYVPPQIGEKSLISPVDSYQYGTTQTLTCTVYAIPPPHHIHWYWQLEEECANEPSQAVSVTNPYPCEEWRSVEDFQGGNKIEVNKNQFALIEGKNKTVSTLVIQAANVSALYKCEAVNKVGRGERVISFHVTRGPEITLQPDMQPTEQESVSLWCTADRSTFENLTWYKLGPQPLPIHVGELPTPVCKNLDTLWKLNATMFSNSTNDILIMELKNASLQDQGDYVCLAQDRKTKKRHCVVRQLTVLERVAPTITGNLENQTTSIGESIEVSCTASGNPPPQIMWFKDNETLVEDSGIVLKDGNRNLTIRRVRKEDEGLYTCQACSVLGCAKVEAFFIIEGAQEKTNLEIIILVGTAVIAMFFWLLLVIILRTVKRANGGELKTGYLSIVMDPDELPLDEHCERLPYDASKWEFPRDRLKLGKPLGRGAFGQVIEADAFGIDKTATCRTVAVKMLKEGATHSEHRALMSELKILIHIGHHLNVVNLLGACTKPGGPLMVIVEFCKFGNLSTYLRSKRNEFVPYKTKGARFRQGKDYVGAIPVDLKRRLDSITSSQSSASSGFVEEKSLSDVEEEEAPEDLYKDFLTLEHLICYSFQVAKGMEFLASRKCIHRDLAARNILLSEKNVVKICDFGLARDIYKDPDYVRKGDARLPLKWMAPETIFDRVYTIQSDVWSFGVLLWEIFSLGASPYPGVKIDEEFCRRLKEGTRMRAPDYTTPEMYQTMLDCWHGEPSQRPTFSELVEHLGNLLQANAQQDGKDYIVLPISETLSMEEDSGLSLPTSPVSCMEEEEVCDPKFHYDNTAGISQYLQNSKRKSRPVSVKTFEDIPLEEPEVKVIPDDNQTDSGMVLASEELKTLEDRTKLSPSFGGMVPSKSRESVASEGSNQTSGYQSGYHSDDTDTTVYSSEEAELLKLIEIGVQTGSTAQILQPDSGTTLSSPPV
Measured metric: IC50

Answered cases to consult:
Smiles repr	IC50
CCCCCCCCCCCCCCCCN1C(=O)c2cccc3c(NCCNCCN(C)C)ccc(c23)C1=O	> 100 µM
CN(C)CCNCCNc1ccc2c3c(cccc13)C(=O)N(C)C2=O	> 100 µM

Now look at this entry.
Challenge: Recorded IC50 for CCCCCCCCN1C(=O)c2cccc3c(NCCNCCN(C)C)ccc(c23)C1=O , please?
Response given: 48.9 µM

---

solubility at 24 h listing for selected compounds.
- Test method notes: Solubility of the compound in PBS buffer at PH 7.4 after 24 hrs by UV-Visible spectrophotometry
- Format: physicochemical
Value expressed in µM; do not type the unit.

Smiles repr	solubility at 24 h / µM
CCCCCCCCN1C(=O)c2cccc3c(NCCNCCN(C)C)ccc(c23)C1=O	264
CCCCN1C(=O)c2cccc3c(NCCNCCN(C)C)ccc(c23)C1=O	15400
CCCCCCN1C(=O)c2cccc3c(NCCNCCN(C)C)ccc(c23)C1=O	430
CCN1C(=O)c2cccc3c(NCCNCCN(C)C)ccc(c23)C1=O	46700
CCCCCCCCCCCCCCCCN1C(=O)c2cccc3c(NCCNCCN(C)C)ccc(c23)C1=O	16
CCCCCCCCCCCCN1C(=O)c2cccc3c(NCCNCCN(C)C)ccc(c23)C1=O	63

Now look at this entry.
Challenge: Recorded solubility at 24 h for CN(C)CCNCCNc1ccc2c3c(cccc13)C(=O)N(C)C2=O , please?
Response given: 78400

---

- Experimental system: DNA topoisomerase 2-alpha (Homo sapiens) (UniProt P11388)
- Sequence (P11388 whole entry): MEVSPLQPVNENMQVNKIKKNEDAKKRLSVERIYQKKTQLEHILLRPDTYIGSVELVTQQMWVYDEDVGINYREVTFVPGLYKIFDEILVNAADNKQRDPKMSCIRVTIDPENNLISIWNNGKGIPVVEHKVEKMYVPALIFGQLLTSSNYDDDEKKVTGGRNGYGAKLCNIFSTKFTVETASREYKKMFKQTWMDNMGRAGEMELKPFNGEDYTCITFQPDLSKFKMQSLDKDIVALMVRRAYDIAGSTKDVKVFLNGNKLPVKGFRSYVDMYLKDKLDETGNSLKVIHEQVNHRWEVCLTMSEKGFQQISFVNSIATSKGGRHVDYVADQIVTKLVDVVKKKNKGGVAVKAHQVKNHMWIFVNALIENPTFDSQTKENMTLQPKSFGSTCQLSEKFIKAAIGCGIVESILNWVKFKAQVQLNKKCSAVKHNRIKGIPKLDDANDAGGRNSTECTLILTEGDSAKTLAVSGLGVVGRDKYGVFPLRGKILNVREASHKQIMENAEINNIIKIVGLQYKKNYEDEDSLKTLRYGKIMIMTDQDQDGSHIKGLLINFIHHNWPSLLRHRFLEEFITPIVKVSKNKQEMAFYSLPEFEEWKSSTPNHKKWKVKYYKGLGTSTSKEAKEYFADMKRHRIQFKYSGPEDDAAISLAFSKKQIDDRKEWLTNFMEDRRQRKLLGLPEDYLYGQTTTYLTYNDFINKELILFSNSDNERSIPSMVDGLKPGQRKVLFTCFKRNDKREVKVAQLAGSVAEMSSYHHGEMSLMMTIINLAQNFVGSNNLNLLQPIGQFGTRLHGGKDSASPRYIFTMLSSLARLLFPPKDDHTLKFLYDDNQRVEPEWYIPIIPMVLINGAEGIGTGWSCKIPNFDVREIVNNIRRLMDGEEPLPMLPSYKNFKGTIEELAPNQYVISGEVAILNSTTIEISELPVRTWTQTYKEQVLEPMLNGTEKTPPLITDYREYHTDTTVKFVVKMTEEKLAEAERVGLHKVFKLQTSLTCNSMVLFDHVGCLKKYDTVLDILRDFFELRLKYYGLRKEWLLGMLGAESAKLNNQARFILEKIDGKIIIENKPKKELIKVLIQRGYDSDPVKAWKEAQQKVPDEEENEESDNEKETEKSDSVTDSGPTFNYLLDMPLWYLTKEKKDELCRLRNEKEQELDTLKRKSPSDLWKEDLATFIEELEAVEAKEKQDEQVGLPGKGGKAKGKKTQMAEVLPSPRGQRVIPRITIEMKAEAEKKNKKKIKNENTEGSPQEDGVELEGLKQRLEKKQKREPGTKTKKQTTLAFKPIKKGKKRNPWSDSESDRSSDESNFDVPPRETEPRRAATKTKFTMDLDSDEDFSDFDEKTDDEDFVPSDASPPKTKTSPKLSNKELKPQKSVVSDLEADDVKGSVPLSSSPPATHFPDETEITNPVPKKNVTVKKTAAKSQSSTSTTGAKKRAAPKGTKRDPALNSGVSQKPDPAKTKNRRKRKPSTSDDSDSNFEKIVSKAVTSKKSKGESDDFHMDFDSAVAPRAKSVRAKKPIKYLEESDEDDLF
- Test method notes: Inhibition of human topoisomerase 2 alpha-mediated decatenation of kinetoplast DNA at 100 uM after 30 mins by agarose gel electrophoresis in presence of ATP relative to control
inhibition listing for selected molecules.
Value expressed in %; do not type the unit.

Answered cases to consult:
Molecule	inhibition / %
CCCCCCCCCCCCCCCCN1C(=O)c2cccc3c(NCCNCCN(C)C)ccc(c23)C1=O	97.3
CCCCN1C(=O)c2cccc3c(NCCNCCN(C)C)ccc(c23)C1=O	90.2
CCCCCCCCCCCCN1C(=O)c2cccc3c(NCCNCCN(C)C)ccc(c23)C1=O	96.6
CN(C)CCNCCNc1ccc2c3c(cccc13)C(=O)N(C)C2=O	97.1
CCCCCCCCN1C(=O)c2cccc3c(NCCNCCN(C)C)ccc(c23)C1=O	99.8
CN(C)CCN1C(=O)c2cccc3cc(N)cc(c23)C1=O [AMONAFIDE]	97.5
CCCCCCN1C(=O)c2cccc3c(NCCNCCN(C)C)ccc(c23)C1=O	94.3

Challenge: Recorded inhibition for CCN1C(=O)c2cccc3c(NCCNCCN(C)C)ccc(c23)C1=O , please?
Response given: 86.7

---

Target or system Platelet-derived growth factor receptor beta (Homo sapiens, UniProt P09619); recorded quantity IC50.

Smiles repr	Experimental system	IC50
CCCCCCN1C(=O)c2cccc3c(NCCNCCN(C)C)ccc(c23)C1=O	Platelet-derived growth factor receptor beta (Homo sapiens, UniProt P09619)	> 100 µM

Challenge: Recorded IC50 for CCCCCCCCCCCCN1C(=O)c2cccc3c(NCCNCCN(C)C)ccc(c23)C1=O , please?
Response given: > 50 µM

---

pIC50 listing for selected molecules.
- Experimental system: Fibroblast growth factor receptor 1 (Homo sapiens)
- Sequence (P11362 whole entry): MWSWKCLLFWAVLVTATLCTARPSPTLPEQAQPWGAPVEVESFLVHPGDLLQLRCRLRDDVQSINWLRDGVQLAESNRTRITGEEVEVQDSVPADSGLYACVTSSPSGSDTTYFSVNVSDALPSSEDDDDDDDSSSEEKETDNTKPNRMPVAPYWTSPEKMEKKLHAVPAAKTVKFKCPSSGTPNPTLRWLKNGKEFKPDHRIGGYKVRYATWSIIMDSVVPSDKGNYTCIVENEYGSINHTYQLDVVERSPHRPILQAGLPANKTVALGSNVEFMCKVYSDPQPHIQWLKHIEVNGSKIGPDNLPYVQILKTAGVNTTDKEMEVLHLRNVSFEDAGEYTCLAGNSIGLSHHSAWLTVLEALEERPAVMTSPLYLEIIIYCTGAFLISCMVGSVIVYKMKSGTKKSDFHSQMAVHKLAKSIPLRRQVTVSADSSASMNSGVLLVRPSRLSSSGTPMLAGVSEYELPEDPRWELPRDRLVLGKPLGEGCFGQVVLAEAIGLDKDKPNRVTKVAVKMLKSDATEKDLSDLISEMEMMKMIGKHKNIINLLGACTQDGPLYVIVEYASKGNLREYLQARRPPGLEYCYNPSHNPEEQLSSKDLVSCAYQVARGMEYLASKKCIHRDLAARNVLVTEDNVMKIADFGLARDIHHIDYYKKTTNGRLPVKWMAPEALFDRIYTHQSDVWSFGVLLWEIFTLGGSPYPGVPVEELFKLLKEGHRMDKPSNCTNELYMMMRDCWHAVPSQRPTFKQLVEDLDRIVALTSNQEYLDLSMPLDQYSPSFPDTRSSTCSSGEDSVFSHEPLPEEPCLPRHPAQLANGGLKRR
pIC50: −log10 of the molar value.

Challenge: Recorded pIC50 for CCCCCCCCCCCCCCCCN1C(=O)c2cccc3c(NCCNCCN(C)C)ccc(c23)C1=O , please?
Response given: < 4.00

Challenge: Follow-up entry: CCCCCCCCCCCCN1C(=O)c2cccc3c(NCCNCCN(C)C)ccc(c23)C1=O
Response given: 4.54

Challenge: Follow-up entry: CCCCCCN1C(=O)c2cccc3c(NCCNCCN(C)C)ccc(c23)C1=O
Response given: < 4.00

Challenge: Follow-up entry: CN(C)CCNCCNc1ccc2c3c(cccc13)C(=O)N(C)C2=O
Response given: < 4.00

Challenge: Follow-up entry: CCN1C(=O)c2cccc3c(NCCNCCN(C)C)ccc(c23)C1=O
Response given: < 4.00

Challenge: Follow-up entry: CCCCCCCCN1C(=O)c2cccc3c(NCCNCCN(C)C)ccc(c23)C1=O
Response given: 4.74

FYI, the data here is from ChEMBL document CHEMBL2407039.
